- System: EFO-27;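 further: growth inhibition of EFO-27 cells, read out with a cell viability assay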
- protocol_text: cells
- Type: functional, cell-based, Homo sapiens
- condition_context: Homo sapiens, EFO-27
- Description: SANGER: Inhibition of human EFO-27 cell growth in a cell viability assay.
Counter-ions that a name gives are not always drawn.
quantity_name: IC50 (nM)
Reply numerically in nM, unit not repeated.

Some solved entries appear below for comparison.
[
  {
    "compound": "Nc1ccn([C@@H]2O[C@H](CO)[C@@H](O)C2(F)F)c(=O)n1",
    "IC50 / nM": 9.05
  },
  {
    "compound": "COC1=CC(c2cc3ccccc3[nH]2)=N/C1=C\\c1[nH]c(C)cc1C [OBATOCLAX MESYLATE]",
    "IC50 / nM": 340
  }
]

Prompt: Provide only the value of recorded IC50 for CC(C)c1ccccc1Cc1cc(C(=O)Nc2ccc(S(=O)(=O)c3ccccc3C(C)(C)C)cc2)c(O)c(O)c1O
Completion: 117
